Listing of recorded microsomal CLint at 1 μM by entry.
Test: Microsomal stability assay, mouse liver microsomes (MLM)
Type: in vitro ADME
Settings: 0.5 mg/mL protein, 1 μM substrate
Where a name gives a salt, the structure may show the parent alone.
Lab book: enter the figure in µL/min/mg, no units written.

compound="O=C1CCc2c(Oc3ccc4c(c3)CC(c3nc(-c5cccc(C(F)(F)F)c5)c[nH]3)CO4)ccnc2N1 (stereo not shown) [Compound 12]" observed_value=15.7
compound="O=C1CCc2c(Oc3ccc4c(c3)CC(c3cc(-c5cccc(C(F)(F)F)c5)n[nH]3)CO4)ccnc2N1 (stereo not shown) [Compound 42]" observed_value=22

**Q:** Recorded microsomal CLint at 1 μM of O=C1CCc2c(Oc3ccc4c(c3)CC(c3nc(-c5cccc(F)c5)c[nH]3)CO4)ccnc2N1 (stereo not shown) [Compound 15] , please.
**A:** 33.9

**Q:** Any idea what microsomal CLint at 1 μM was measured for COc1cc(-c2c[nH]c(C3COc4ccc(Oc5ccnc6c5CCC(=O)N6)cc4C3)n2)ccn1 (stereo not shown) [Compound 19] ?
**A:** 23

**Q:** Which value of microsomal CLint at 1 μM has been reported for O=C1CCc2c(Oc3ccc4c(c3)CN(C(=O)Nc3ccccc3C(F)(F)F)CC4)ccnc2N1 [Compound 49] in the records?
**A:** 83.6

**Q:** I would be grateful if you could share the reported microsomal CLint at 1 μM for CN1CCN(Cc2cc(C(F)(F)F)c3nc(C4COc5ccc(Oc6ccnc7c6CCC(=O)N7)cc5C4)[nH]c3c2)CC1 (stereo not shown) [Compound 28] .
**A:** 31.1

**Q:** Find the recorded microsomal CLint at 1 μM belonging to O=C1CCc2c(Oc3ccc4c(c3)CN(c3nc(-c5ccccc5)n[nH]3)CC4)ccnc2N1 [Compound 44, hydrochloride] and report it.
**A:** 11

###

Assay: Microsomal stability assay, mouse liver microsomes (MLM)
Assay type: in vitro ADME
Conditions: 0.5 mg/mL protein, 1 μM substrate, 37° C.
Readout: MLM (CLint) (µL/min/mg)
Report the figure in µL/min/mg without appending any unit label.

The following molecules have reported results that may help.
molecule="O=C(Nc1cc(Oc2ccc3c(c2)CC(c2nc(-c4ccccc4)c[nH]2)CO3)ccn1)C1CC(F)(F)C1 (stereo not drawn) [Compound 139]" observed_value=277
molecule="O=C(Nc1cc(Oc2ccc3c(c2)CC(c2nc(-c4ccccc4)c[nH]2)CO3)ccn1)C1CC1 (racemic) [Compound 136]" observed_value=277

**Q:** # MLM (CLint) lookup, item COc1cc(-c2c[nH]c(C3COc4ccc(Oc5ccnc6c5CCC(=O)N6)cc4C3)n2)ccn1 (stereo not drawn) [Compound 104]
**A:** 23

###

Experiment: Solubility (Sol), medium not stated
Format: physicochemical
Conditions: cells not marked (FESSIF)
Readout: Sol

compound="O=C1CCc2c(Oc3ccc4c(c3)CC(c3nc5c(C(F)(F)F)cccc5[nH]3)CO4)ccnc2N1 (stereo not shown) [Compound 27]" readout=Sol observed_value="<1.2 mg/L"

**Q:** For the compound N#Cc1ccc(-c2c[nH]c(C3COc4ccc(Oc5ccnc6c5CCC(=O)N6)cc4C3)n2)cc1 (stereo not shown) [Compound 21] , what Sol is on record?
**A:** <1.2 mg/L

**Q:** Look at this compound and give its reported Sol. CN(C)Cc1cc(C(F)(F)F)cc2nc(C3COc4ccc(Oc5ccnc6c5CCC(=O)N6)cc4C3)[nH]c12 (stereo not shown) [Compound 33]
**A:** 7 mg/L

**Q:** // lookup Sol for c1ccc(-c2c[nH]c(C3COc4ccc(OC5CCOCC5)cc4C3)n2)cc1 (stereo not shown) [compound 51]
**A:** 1.2 mg/L

Origin of measurements: patent US12304912B2
